- target_desc: Cytochrome P450 3A4 (Homo sapiens) (UniProt P08684)
- Sequence (P08684 whole entry, looked up): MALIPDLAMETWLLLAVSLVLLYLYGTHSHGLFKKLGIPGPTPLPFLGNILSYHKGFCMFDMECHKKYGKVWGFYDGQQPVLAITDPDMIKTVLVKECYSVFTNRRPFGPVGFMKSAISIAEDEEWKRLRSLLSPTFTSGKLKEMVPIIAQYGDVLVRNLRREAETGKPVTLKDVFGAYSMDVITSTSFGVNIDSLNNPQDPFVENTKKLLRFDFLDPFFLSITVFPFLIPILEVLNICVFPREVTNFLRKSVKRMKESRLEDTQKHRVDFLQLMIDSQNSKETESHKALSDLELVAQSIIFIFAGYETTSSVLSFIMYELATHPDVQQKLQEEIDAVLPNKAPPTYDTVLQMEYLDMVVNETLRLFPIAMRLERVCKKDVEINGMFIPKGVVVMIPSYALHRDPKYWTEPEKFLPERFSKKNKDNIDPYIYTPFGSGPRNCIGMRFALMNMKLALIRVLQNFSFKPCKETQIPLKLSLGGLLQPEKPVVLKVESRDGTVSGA
- protocol_notes: qHTS Assay for Inhibitors and Substrates of Cytochrome P450 3A4 (AID 884); note: nearly all actives have a fitted effect of over 50% in size
- measurement_context: recombinant CYP3A4, Luciferin-PPXE luminescence; series mostly up to 57.1 µM
Records with an inconclusive call do not appear. Calls of active or inactive are those of the source. Calls come from the whole dose curve; as a rule, active = well fitted inhibition curve with a large enough effect; inconclusive = small, poorly fitted or top-dose-only effect; inactive = no such curve, though single readings can be large or run the other way.
// classify into active, inactive

Completed entries (count: 5):
{"compound": "CC(=O)OC1CC(O)C(C)(C)C2CC(OC(C)=O)[C@]3(C)C(CC[C@@]4(C)C(c5ccoc5)OC(=O)C5OC534)[C@]12C (some centres undefined)", "target_desc": "Cytochrome P450 3A4 (Homo sapiens) (UniProt P08684)", "label": "active"}
{"compound": "CNC1C(O)[C@@H]2OC(O[C@@H]3C(O)C(O)C(N)C[C@H]3N)C(N)C[C@H]2O[C@H]1O[C@@H]1OC(CO)C(N)C(O)C1O (some centres undefined)", "target_desc": "Cytochrome P450 3A4 (Homo sapiens) (UniProt P08684)", "label": "inactive"}
{"compound": "CC(C)=CC1C(C(=O)O)C1(C)C (centres undefined)", "target_desc": "Cytochrome P450 3A4 (Homo sapiens) (UniProt P08684)", "label": "inactive"}
{"compound": "O=c1[nH]c(=O)c2nc(Br)n(C3OC(CO)C(O)C3O)c2[nH]1 (centres undefined)", "target_desc": "Cytochrome P450 3A4 (Homo sapiens) (UniProt P08684)", "label": "inactive"}
{"compound": "COc1ccc(CCC(=O)c2c(O)cc(OC3OC(CO)C(O)C(O)C3O[C@@H]3OC(C)C(O)C(O)C3O)cc2O)cc1O (some centres undefined)", "target_desc": "Cytochrome P450 3A4 (Homo sapiens) (UniProt P08684)", "label": "inactive"}

Lab note: next compound to report on.
Query block: What did this assay record as the result for COc1cc(NS(C)(=O)=O)ccc1Cc1c2ccccc2nc2ccccc12 ?
Result block: inactive

====

- Test system: CP329
- protocol_notes: qHTS profiling for inhibitors of Plasmodium falciparum proliferation (AID 504749); note: nearly all actives have a fitted effect of over 60% in size
- measurement_context: P. falciparum in erythrocytes, SYBR Green DNA, 72 h; series mostly up to 12.8 µM
Results filed as inconclusive are left out. The source made the active and inactive calls. Calls come from the whole dose curve; as a rule, active = well fitted inhibition curve with a large enough effect; inconclusive = small, poorly fitted or top-dose-only effect; inactive = flat fitted curve, though single readings scatter.
// classify into t (active), f (inactive)

Completed entries (count: 8):
{"compound": "C[C@]12CCC(=O)C=C1CCC1C2C(=O)C[C@]2(C)C1CC[C@]2(O)C(=O)CO (some centres undefined)", "label": "f"}
{"compound": "CO[C@]1(NC(=O)[C@H](C(=O)O)c2ccc(O)cc2)C(=O)N2C(C(=O)O)=C(CSc3nnnn3C)CO[C@H]21", "label": "f"}
{"compound": "CCCCCCCCCc1ccc(OCCOCCOCCOCCOCCOCCOCCOCCOCCO)cc1", "label": "f"}
{"compound": "COc1ccc(-c2cc(=O)c3c(O)cc(O[C@H]4OC(COC5OC(C)C(O)C(O)[C@H]5O)C(O)C(O)C4O)cc3o2)cc1O (some centres undefined)", "label": "f"}
{"compound": "COc1c(O[C@H]2O[C@@H](CO)[C@@H](O)[C@@H](O)[C@@H]2O)cc2c(c1OC)-c1ccc(SC)c(=O)cc1[C@H](NC(C)=O)CC2", "label": "f"}
{"compound": "COc1ccc(CC(N)C(=O)NC2C(CO)OC(n3cnc4c(N(C)C)ncnc43)C2O)cc1 (centres undefined)", "label": "t"}
{"compound": "CCCCC[C@H](O)/C=C\\[C@@H]1[C@H](O)CC(=O)[C@@H]1CCCCCCC(=O)O", "label": "f"}
{"compound": "CN1CCO[C@H](c2ccccc2)c2ccccc2C1", "label": "f"}

Lab note: next compound to report on.
Query block: What did this assay record as the result for Cc1ccsc1/C=C\C1=NCCCN1C ?
Result block: f

FYI, the data here is from PubChem BioAssay (NCATS).
